- target_system: HLA-B*15:17
- assay_explanation: IEDB peptide-MHC binding, purified MHC/competitive/fluorescence; filed as Kd, often an IC50 or EC50 that approximates it; bounds were set here for any values at or beyond the usual limits of such assays
- experimental_setup: source organism: Choclo virus
pKd: −log10 of the molar value.
test_readout: pKd

Task: Complete the entry with pKd for `LPSSSSYSY`
Output: ≤ 4.70

###

- target_system: HLA-A*31:01
- assay_explanation: IEDB peptide-MHC binding, purified MHC/direct/fluorescence; filed as Kd, often an IC50 or EC50 that approximates it; bounds were set here for any values at or beyond the usual limits of such assays
- experimental_setup: source organism: Bacillus anthracis
test_readout: Kd

Task: Complete the entry with Kd for `YFENSDLNL`
Output: ≥ 20 µM

###

- target_system: HLA-B*08:02
- assay_explanation: IEDB peptide-MHC binding, purified MHC/direct/fluorescence; filed as Kd, often an IC50 or EC50 that approximates it; bounds were set here for any values at or beyond the usual limits of such assays
- experimental_setup: source organism: Influenza A virus (A/turkey/NC/17026/1988(H1N1))
test_readout: Kd

Task: State the measured Kd (HLA-B*08:02) of `VSFDQNLDY`
Output: ≥ 20 µM

###

- target_system: HLA-A*02:03
- assay_explanation: IEDB peptide-MHC binding, purified MHC/competitive/fluorescence; filed as Kd, often an IC50 or EC50 that approximates it; bounds were set here for any values at or beyond the usual limits of such assays
- experimental_setup: source organism: Vaccinia virus Copenhagen
pKd: −log10 of the molar value.
test_readout: pKd

Task: State the measured pKd (HLA-A*02:03) of `NRLKPRDFK`
Output: ≤ 4.70

###

- target_system: HLA-B*27:05
- assay_explanation: IEDB peptide-MHC binding, purified MHC/competitive/fluorescence; filed as Kd, often an IC50 or EC50 that approximates it; bounds were set here for any values at or beyond the usual limits of such assays
- experimental_setup: source organism: Influenza A virus (A/Hong Kong/CUHK13527/2003(H3N2))
test_readout: pKd
Please note pKd is a logarithmic value: minus log10 of concentration in mol/L. Answer with that number alone.

Task: Complete the entry with pKd for `GKLNRLIGK`
Output: 5.74

###

- target_system: HLA-B*53:01
- assay_explanation: IEDB peptide-MHC binding, purified MHC/competitive/fluorescence; bounds were set here for any values at or beyond the usual limits of such assays
- experimental_setup: source organism: Mus musculus
test_readout: IC50

Task: Complete the entry with IC50 for `VALFSSCPVAY`
Output: ≥ 20 µM

###

- target_system: HLA-B*58:01
- assay_explanation: IEDB peptide-MHC binding, purified MHC/competitive/fluorescence; filed as Kd, often an IC50 or EC50 that approximates it; bounds were set here for any values at or beyond the usual limits of such assays
- experimental_setup: source organism: Orthohantavirus andesense
test_readout: pKd
Please note pKd is a logarithmic value: minus log10 of concentration in mol/L. Answer with that number alone.

Task: Complete the entry with pKd for `NALEKALRW`
Output: 7.59

###

- target_system: HLA-B*18:01
- assay_explanation: IEDB peptide-MHC binding, purified MHC/competitive/radioactivity; filed as Kd, often an IC50 or EC50 that approximates it; bounds were set here for any values at or beyond the usual limits of such assays
- experimental_setup: source organism: Mammarenavirus juninense
pKd: −log10 of the molar value.
test_readout: pKd

Task: State the measured pKd (HLA-B*18:01) of `LDLVLLNLL`
Output: ≤ 4.36
